# Tested on: CDC2L5;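 note: KINOMEscan kinase panel screen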
# Construct: gene CDK13
# condition: concentration: 1 μM, replicates: in singlicate; n = 1
experimental.endpoint: %Inh (%)
Just the number please, in %, no unit attached.

Measured on CDC2L5, `COc1cc2ncnc(Nc3ccc(OCc4ccccc4Br)c(Cl)c3)c2cc1OC.Cl` has a documented %Inh of 0

Measured on CDC2L5, `Cl.O=S(=O)(c1cccc(F)c1)c1ccc(Nc2ncnc3cc(Br)sc23)cc1Cl` has a documented %Inh of 0

Measured on CDC2L5, COc1ccc(Nc2nccc(N3CCC(NC(=O)Nc4ccc5c(c4)OCO5)C3)n2)cc1 (stereo not drawn) has a documented %Inh of 0

Measured on CDC2L5, `CCC(CC)(CC)n1cnc2c(N)ncnc21` has a documented %Inh of 20

Measured on CDC2L5, `CCc1nc(-c2cccc(C)c2)c(-c2ccnc(NC(=O)c3ccccc3)c2)s1` has a documented %Inh of 12

Measured on CDC2L5, `Clc1ccc(-c2cc(-c3c[nH]nc3-c3ccccn3)ccn2)cc1` has a documented %Inh of 0

Measured on CDC2L5, `NC(=O)c1sc(-n2cnc3ccccc32)cc1OCc1ccccc1F` has a documented %Inh of 0

Measured on CDC2L5, `Fc1ccc(-c2ncn(CCCNCc3ccccc3)c2-c2ccncc2)cc1` has a documented %Inh of 18

Measured on CDC2L5, `Nc1nc(-c2ccccn2)c(-c2ccnc3ccccc23)s1` has a documented %Inh of 0
